system: Cavia porcellus; experiment: In vivo reduction of acetylcholine-induced bronchospasm in guinea pigs by intraduodenal dose; type: functional
Examples of molecules with documented ED50 follow.
Give the value in mg/kg but do not write mg/kg after it.

// below: answered molecules
CCCCn1c(=O)c2nc[nH]c2n(CCC)c1=O
2.87
Cn1c(=O)c2nc[nH]c2n(C)c1=O.O
23.4
CCCCn1c(=O)c2c(ncn2C)n(CCC)c1=O
2.34

Problem: I am curious: what ED50 value has been reported for CCCn1c(=O)[nH]c(=O)c2nc[nH]c21 ?
Solution: 25.7

* * *

target: Adenosine receptor A1 (Cavia porcellus) (UniProt P47745); assay: Positive chronotropic effect on isolated guinea pig right atrium (heart stimulation).; assay type: functional, tissue-based; details: Cardiac atrium
Examples of compounds with documented EC15 follow.

O=c1[nH]c(=O)c2nc[nH]c2[nH]1
> 100 µM

Problem: I am curious: what EC15 value has been reported for CCCn1c(=O)[nH]c(=O)c2c1ncn2CC ?
Solution: > 100 µM

Problem: I am curious: what EC15 value has been reported for CCn1c(=O)n(C)c(=O)c2[nH]cnc21 ?
Solution: 28.5 µM

Problem: I am curious: what EC15 value has been reported for CCCCn1c(=O)c2nc[nH]c2n(CCC)c1=O ?
Solution: 29 µM

Problem: I am curious: what EC15 value has been reported for CCCn1c(=O)n(CC)c(=O)c2c1ncn2C ?
Solution: 30 µM

Problem: I am curious: what EC15 value has been reported for CCCCn1cnc2c1c(=O)[nH]c(=O)n2CCC ?
Solution: > 100 µM

Problem: I am curious: what EC15 value has been reported for CCn1c(=O)c2nc[nH]c2n(C)c1=O ?
Solution: 34 µM

* * *

biological target: Adenosine receptor A2a (Cavia porcellus)
Sequence (P46616 whole entry): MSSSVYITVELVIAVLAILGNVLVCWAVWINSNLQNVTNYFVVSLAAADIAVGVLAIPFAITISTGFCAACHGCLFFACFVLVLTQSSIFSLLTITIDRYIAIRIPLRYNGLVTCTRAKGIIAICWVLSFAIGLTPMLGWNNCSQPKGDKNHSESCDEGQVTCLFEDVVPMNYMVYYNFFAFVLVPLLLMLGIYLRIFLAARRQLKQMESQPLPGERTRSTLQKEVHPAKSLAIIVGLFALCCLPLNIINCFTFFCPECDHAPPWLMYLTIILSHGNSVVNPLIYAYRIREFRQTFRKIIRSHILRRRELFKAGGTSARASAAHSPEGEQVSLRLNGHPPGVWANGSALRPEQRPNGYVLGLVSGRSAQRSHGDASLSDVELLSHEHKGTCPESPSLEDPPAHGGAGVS
measurementLabel: pKi
Recall that pKi is obtained by taking minus log10 of the concentration measured in molar.

CCCCn1c(=O)[nH]c2nc[nH]c2c1=O
4.81

Problem: I am curious: what pKi value has been reported for CCCCn1cnc2c1c(=O)n(C)c(=O)n2CCC ?
Solution: 4.82

Problem: I am curious: what pKi value has been reported for CCCn1c(=O)[nH]c2nc[nH]c2c1=O ?
Solution: 4.63

Problem: I am curious: what pKi value has been reported for CCCCn1c(=O)n(C)c(=O)c2[nH]cnc21 ?
Solution: 5.32

* * *

Target: UniProt:P47745
Sequence (P47745 whole entry): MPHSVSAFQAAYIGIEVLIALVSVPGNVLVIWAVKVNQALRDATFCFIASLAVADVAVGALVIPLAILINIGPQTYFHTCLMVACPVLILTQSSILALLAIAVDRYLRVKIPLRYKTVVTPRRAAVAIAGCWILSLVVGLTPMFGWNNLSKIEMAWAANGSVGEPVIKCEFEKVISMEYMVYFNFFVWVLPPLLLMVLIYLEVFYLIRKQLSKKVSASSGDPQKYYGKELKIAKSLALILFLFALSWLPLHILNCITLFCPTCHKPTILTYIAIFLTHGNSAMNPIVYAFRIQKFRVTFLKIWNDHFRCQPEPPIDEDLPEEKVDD
Examples of compounds with documented Ki follow.
Give the value in µM but do not write µM after it.

CCCn1cnc2c1c(=O)n(C)c(=O)n2CCC
9.4
CCCn1c(=O)n(C)c(=O)c2c1ncn2CC
14.2

Problem: # value lookup — system UniProt:P47745, readout Ki, item CCCn1c(=O)[nH]c(=O)c2c1ncn2C
Solution: 90.6

Problem: # value lookup — system UniProt:P47745, readout Ki, item CCCCn1c(=O)c2c(ncn2C)n(CCC)c1=O
Solution: 6

Problem: # value lookup — system UniProt:P47745, readout Ki, item CCCCn1c(=O)n(C)c(=O)c2[nH]cnc21
Solution: 1.9

Problem: # value lookup — system UniProt:P47745, readout Ki, item CCCn1c(=O)n(CC)c(=O)c2c1ncn2C
Solution: 11.8

Problem: # value lookup — system UniProt:P47745, readout Ki, item CCCn1c(=O)c2[nH]cnc2n(C)c1=O
Solution: 3.4

Problem: # value lookup — system UniProt:P47745, readout Ki, item CCCn1c(=O)[nH]c2nc[nH]c2c1=O
Solution: 3.3

Problem: # value lookup — system UniProt:P47745, readout Ki, item CCCn1c(=O)c2nc[nH]c2n(CCC)c1=O
Solution: 0.2

Problem: # value lookup — system UniProt:P47745, readout Ki, item CCCCn1cnc2c1c(=O)[nH]c(=O)n2CCC
Solution: 12.1

Problem: # value lookup — system UniProt:P47745, readout Ki, item CCn1c(=O)[nH]c(=O)c2[nH]cnc21
Solution: 117

Problem: # value lookup — system UniProt:P47745, readout Ki, item CCCCn1c(=O)c2[nH]cnc2n(CCC)c1=O
Solution: 0.02

Problem: # value lookup — system UniProt:P47745, readout Ki, item CCn1c(=O)n(C)c(=O)c2[nH]cnc21
Solution: 7.6
